molecular target: A. terreus ODC (Aspergillus terreus, UniProt A0ACN5CWH9); experiment: Effect of inhibitors on activity of purified A. terreus ODC (residual activity, standard TNBS assay); type: biochemical; conditions: inhibitor 40 µg/mL, enzyme preincubated 2 h, then L-ornithine; residual ODC activity
measured_endpoint: Relative Activity (%)
Numbers only; they are read as %.

# molecule, unit_text, Relative Activity (%)
data = [
    ("C#CCC(N)C(=O)O (stereo not drawn) [Propargylgycine, propargylglycine]", "%", 30),
]

// query Relative Activity (%) value for entry N#CS.N=C(N)N [Guanidine thiocyanate, guanidine thiocyanate]
60

// query Relative Activity (%) value for entry NC(=O)CI [Iodoacetamide, iodoacetamide]
19
